Target: ABHD6 (Mus musculus, UniProt Q8R2Y0)
Sequence (Q8R2Y0 1-336): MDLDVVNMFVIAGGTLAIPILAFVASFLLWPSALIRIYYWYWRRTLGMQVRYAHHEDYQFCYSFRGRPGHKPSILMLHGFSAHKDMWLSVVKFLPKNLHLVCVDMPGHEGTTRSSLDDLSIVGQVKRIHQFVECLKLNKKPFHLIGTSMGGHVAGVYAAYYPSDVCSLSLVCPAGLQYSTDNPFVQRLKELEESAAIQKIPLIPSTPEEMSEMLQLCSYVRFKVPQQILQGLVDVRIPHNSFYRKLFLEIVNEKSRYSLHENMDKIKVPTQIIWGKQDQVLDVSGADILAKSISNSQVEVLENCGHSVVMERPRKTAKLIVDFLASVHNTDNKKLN
Test: In vitro competitive activity-based protein profiling (Table 2, % inhibition at 1 μM)
Format: biochemical
Conditions: read-out: % Inhibition at 1 μM ABHD6
Measurement label: inhibition at 1 µM

compound="CCn1cc(CN2CC3CN(C(=O)OC(C(F)(F)F)C(F)(F)F)CC3C2)c(-c2ccc(N3CCC3)cc2)n1 (stereo not drawn)" measured_value="25 to 75%"
compound="O=C(ON1C(=O)CCC1=O)N1CC2CN(Cc3ccc(Cl)cc3N3CCC(C(=O)N4CCCC4)CC3)CC2C1 (stereo not drawn)" measured_value="< 25%"
compound="O=C(OC(C(F)(F)F)C(F)(F)F)N1CC2CN(Cc3ccc(F)cc3N3CCOCC3)CC2C1 (stereo not drawn)" measured_value="< 25%"
compound="CCn1ncc(CN2CC3CN(C(=O)OC(C(F)(F)F)C(F)(F)F)CC3C2)c1C(=O)NCC1CC1 (stereo not drawn)" measured_value="25 to 75%"
compound="O=C(ON1C(=O)CCC1=O)N1CC2CN(Cc3ccc(C(=O)N4CCCCC4)cc3Cl)CC2C1 (stereo not drawn)" measured_value="25 to 75%"
compound="Cc1cccc(CN2CC3CN(C(=O)OC(C(F)(F)F)C(F)(F)F)CC3C2)c1N1CCOCC1 (stereo not drawn)" measured_value="< 25%"
compound="CC(=O)N1CCN(c2ccc(CN3CC4CN(C(=O)OC(C(F)(F)F)C(F)(F)F)CC4C3)c(F)c2)CC1 (stereo not drawn)" measured_value="25 to 75%"
compound="O=C(OC(C(F)(F)F)C(F)(F)F)N1CC2CN(Cc3ccc(C(F)F)cc3N3CCCCC3)CC2C1 (stereo not drawn)" measured_value="< 25%"
compound="O=C(OC(C(F)(F)F)C(F)(F)F)N1CC2CN(C(c3ccc(Cl)cc3)c3ccc(Cl)cc3)CC2C1 (stereo not drawn)" measured_value="25 to 75%"

---

Each entry below carries its reported inhibition at 1 µM.
biological target: MAGL (Mus musculus, UniProt O35678); experiment: In vitro competitive activity-based protein profiling (Table 2, % inhibition at 1 μM); type: biochemical; settings: read-out: % Inhibition at 1 μM MAGL
Sequence (O35678 whole entry): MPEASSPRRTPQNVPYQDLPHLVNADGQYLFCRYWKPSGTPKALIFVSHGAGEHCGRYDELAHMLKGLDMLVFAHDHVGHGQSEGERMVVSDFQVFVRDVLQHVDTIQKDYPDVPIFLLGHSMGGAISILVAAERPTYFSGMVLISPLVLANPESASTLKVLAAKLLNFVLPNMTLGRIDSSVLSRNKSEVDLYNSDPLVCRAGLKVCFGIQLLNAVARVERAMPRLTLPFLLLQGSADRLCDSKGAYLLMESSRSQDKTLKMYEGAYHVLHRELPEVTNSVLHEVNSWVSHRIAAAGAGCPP
Measurement label: inhibition at 1 µM

molecule="O=C(ON1C(=O)CCC1=O)N1CC2CN(Cc3ccc(Cl)cc3N3CCC3)CC2C1 (centres unmarked)" tested_on="MAGL (Mus musculus, UniProt O35678)" measured_value="> 75%"
molecule="O=C(ON1C(=O)CCC1=O)N1CC2CN(Cc3ccc(Cl)cc3N3CCOCC3)CC2C1 (centres unmarked)" tested_on="MAGL (Mus musculus, UniProt O35678)" measured_value="25 to 75%"
molecule="O=C(OC(C(F)(F)F)C(F)(F)F)N1CC2CN(Cc3cccc(N4CCOCC4)c3C(F)(F)F)CC2C1 (centres unmarked)" tested_on="MAGL (Mus musculus, UniProt O35678)" measured_value="> 75%"
molecule="CCn1cc(CN2CC3CN(C(=O)OC(C(F)(F)F)C(F)(F)F)CC3C2)c(-c2ccccc2N2CCC2)n1 (centres unmarked)" tested_on="MAGL (Mus musculus, UniProt O35678)" measured_value="> 75%"
molecule="CS(=O)(=O)N1CCN(c2cc(Cl)ccc2CN2CC3CN(C(=O)ON4C(=O)CCC4=O)CC3C2)CC1 (centres unmarked)" tested_on="MAGL (Mus musculus, UniProt O35678)" measured_value="< 25%"

Hey, just so you know, these numbers are from patent US9828379B2.
